Data provenance is patent US20200123233A1.

target: T1, hRSV FTM- protein (membrane anchorless form of the fusion protein, 70 kDa) (human respiratory syncytial virus, UniProt P12568 26-524); experiment: SPR (Biacore T100), FTM- amine-coupled on CM5 chip, 1:1 Langmuir fit
T1 construct: extracellular domain
MEASURED QUANTITY: koff (s⁻¹)
Give the value, in units of s⁻¹, as a plain number.

Study these solved cases before continuing.
BINDER	koff [s⁻¹]
LG191D3 (VHH) VHH: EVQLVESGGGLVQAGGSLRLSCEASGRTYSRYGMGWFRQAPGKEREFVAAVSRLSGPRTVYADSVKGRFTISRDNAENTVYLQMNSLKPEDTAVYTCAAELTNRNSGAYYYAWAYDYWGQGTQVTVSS	0.00324
LG191B9 (VHH) VHH: EVQLVESGGGLVQAGGSLRLSCAASGRTFSSSFMAWFRQVLGSDREFVGGISPGGRFTYYADSRKGRFTISGDNANNTVYLQMHSVKPEDTATYYCAADTQFSGYVPKETNEYDYWGQGTQVTVSS	0.00492
LG191E4 (VHH) VHH: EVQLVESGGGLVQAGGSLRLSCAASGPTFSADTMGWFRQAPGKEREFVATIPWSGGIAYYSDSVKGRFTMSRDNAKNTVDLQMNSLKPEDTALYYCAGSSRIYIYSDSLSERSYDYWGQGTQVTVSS	0.000208
LG192C6 (VHH) VHH: EVQLVESGGGLVQAGGSLRLSCEASGRTERYQAMGWFRQAPGKEREFVAVVTRWSGARTVYADSVKGRFTISRDNAENTVYLQMNSLKPEDTAVYTCAADSTNRNRGAIYYTWAYDYWGQGTQVTVSS	0.00808

Next binder, koff to be filled in.
Record LG192B1 (VHH) VHH: EVQLVESGGGLVQPGGSLRLSCAASGLTFRNYAIGWFRQAPGKEREGVSCINSGGSITDYLDSVKGRFAISRDNAKSTVYLQMNSLKPEDTAVYYCATDLTSSCPIYSGTDYWGKGTLVTVSS . Reported koff: 0.0127
